system name: T1, His-tagged CEACAM1 (human, UniProt P13688 35-428)
T1 construct: 45 kDa SPR analyte; also called CEACAM1-HIS; CEACAM1 analyte
T1 sequence: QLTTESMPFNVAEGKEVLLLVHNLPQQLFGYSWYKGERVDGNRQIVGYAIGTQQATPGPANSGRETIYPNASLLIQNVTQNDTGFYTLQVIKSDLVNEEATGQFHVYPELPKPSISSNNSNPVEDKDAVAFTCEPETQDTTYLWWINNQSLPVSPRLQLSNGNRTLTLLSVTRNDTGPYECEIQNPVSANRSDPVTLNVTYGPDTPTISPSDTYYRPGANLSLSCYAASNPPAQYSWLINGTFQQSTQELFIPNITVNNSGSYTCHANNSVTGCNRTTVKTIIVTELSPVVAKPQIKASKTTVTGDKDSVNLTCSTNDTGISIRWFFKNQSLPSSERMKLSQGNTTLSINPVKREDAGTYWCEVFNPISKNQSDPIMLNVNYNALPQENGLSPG
protocol details: SPR single-cycle, supernatant IgG captured
measured quantity: kon (M⁻¹ s⁻¹)
Give your result in M⁻¹ s⁻¹ as a bare value.

## Input Provide only the value of recorded kon for CP08A08/Vκ8 S29A (antibody, IgG4, V domains shown, IgG4 (S241P), kappa) VH: EVQLLESGGGLVQPGGSLRLSCAASGFIFTNHGMSWVRQAPGKGLEWVATISSGGTYTYYPDSVKGRFTISRDNSKNTLYLQMNSLKAEDTAMYYCARHDFDYDAAWFAYWGQGTLVTVSS VL: EIVLTQSPATLSLSPGERATLSCRANSAVSYMYWYQQKPGQAPRPWIYLTSNRATGVPARFSGSGSGTDYTLTISSLEPEDFAVYYCQQWSSNPPTFGQGTKLEIK
## Output 57000
